This section presents molecules with their documented IC50 values.
Target: NK1 (Homo sapiens, UniProt P25103)
Sequence (P25103 whole entry): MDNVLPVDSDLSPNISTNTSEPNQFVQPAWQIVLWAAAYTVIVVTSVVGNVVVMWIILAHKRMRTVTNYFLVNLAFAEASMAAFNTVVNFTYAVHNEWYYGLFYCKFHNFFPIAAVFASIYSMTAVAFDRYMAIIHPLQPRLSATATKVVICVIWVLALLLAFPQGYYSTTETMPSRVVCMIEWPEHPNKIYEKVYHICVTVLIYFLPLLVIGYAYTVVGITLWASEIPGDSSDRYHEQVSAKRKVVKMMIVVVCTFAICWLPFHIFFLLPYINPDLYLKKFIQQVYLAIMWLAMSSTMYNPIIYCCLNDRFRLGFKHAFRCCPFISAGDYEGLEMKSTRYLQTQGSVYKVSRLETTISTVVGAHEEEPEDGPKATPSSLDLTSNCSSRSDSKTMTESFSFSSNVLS
Assay: Signal transduction (ST), intracellular Ca++ FLIPR, NK1
Type: cell-based
Settings: antagonist response, Ca++ transient peak, read-out: NK1 pIC50 (converted)
Please reply with the bare figure in nM and do not write the unit itself.

Molecule	Measured number
Cc1nnsc1C(=O)N1CCC2(CCN([C@H]3CCN(C(=O)c4cc(C(F)(F)F)cc(C(F)(F)F)c4)[C@H](Cc4ccccc4)C3)C2)C1 (some centres unmarked)	100

# return recorded IC50 for entry O=C(c1cc(C(F)(F)F)cc(C(F)(F)F)c1)N1CC[C@@H](N2CCC3(CCCN3C(=O)c3ccccc3)C2)C[C@H]1Cc1ccccc1 (some centres unmarked) 158

Write down IC50 measured for item O=C(c1cc(C(F)(F)F)cc(C(F)(F)F)c1)N1CC[C@@H](N2CCC3(CCCN3C(=O)c3cnccn3)C2)C[C@H]1Cc1ccccc1 (some centres unmarked) 200

Supply reported IC50 belonging to this molecule: O=C(c1cc(C(F)(F)F)cc(C(F)(F)F)c1)N1CC[C@@H](N2CCC3(CCCN3C(=O)c3ccoc3)C2)C[C@H]1Cc1ccccc1 (some centres unmarked) 100

Hello, please tell me recorded IC50 for this one: CC(C)(C)C(=O)N1CCC2(CCN([C@H]3CCN(C(=O)c4cc(C(F)(F)F)cc(C(F)(F)F)c4)[C@H](Cc4ccccc4)C3)C2)C1 (some centres unmarked) 63.1
